Tested on: Myzus persicae
Test: whole plant or invertebrate
Assay type: in vivo
Conditions: Myzus persicae, 24 h; 20 g/ha; after 1 d; read-out: Kill rate in % after 1 d
test-readout: pest or weed control at 20 g/ha (%)
All answers are understood in %, so give the number only.

Guide cases for pest or weed control at 20 g/ha, answers given:
CN/C(=N\[N+](=O)[O-])NCc1cnc(Cl)s1; 70
N#C/N=C1\SCCN1Cc1ccc(Cl)nc1; 80
CN1COCN(Cc2cnc(Cl)s2)/C1=N\[N+](=O)[O-]; 70
CS/C(C)=N\OC(=O)N(C)SN(C)C(=O)O/N=C(\C)SC; 0
COP(N)(=O)SC (stereo not shown); 0
CC1(C)[C@H](C=C(Cl)Cl)[C@H]1C(=O)OCc1c(F)c(F)cc(F)c1F [transfluthrin]; 70
CCOP(=O)(SC(C)CC)SC(C)CC (stereo not shown); 0
O=C1C=C(N(Cc2ccc(Cl)nc2)CC(F)F)CO1; 0
CNC(=O)Oc1cc(C)c(SC)c(C)c1; 0

Below: the item to evaluate.
Which value of pest or weed control at 20 g/ha has been reported for `CNC(=O)Oc1cccc2c1OC(C)(C)C2` in the records?
70
